- System: T-47D breast
- method notes: NCI-60 one-dose screen, 48 h (100 = growth as untreated, 0 = no growth, -100 = all killed)
- cond: 10 µM unless noted
Compounds without any hit were thinned out: in the full panel of roughly 83,000, 20% have a hit. Activity calls are given as the source filed them. Rule for the calls: active = growth percent below 10; inactive = the rest.
This listing pairs compounds with measured growth.

Examples from the recorded data:
>  <compound>
CCCC(=O)OCC(COC(=O)CCC)OC(=O)CCC

>  <assayed target>
T-47D breast

>  <growth>
85.3% (inactive)

$$$$
>  <compound>
COC(=O)c1nc(=S)[nH]c(C(=O)OC)c1C(=O)c1ccc(OC)cc1

>  <assayed target>
T-47D breast

>  <growth>
125% (inactive)

$$$$
>  <compound>
OCc1ccccc1F

>  <assayed target>
T-47D breast

>  <growth>
95.9% (inactive)

$$$$

Kindly consider the entry below.
growth for Cc1cccc(Cl)c1N is 110% (inactive)
